Exercise: state measured folding stability dG for each of the variants provided.
B1: r4_43_TrROS_Hall (parent)
chain: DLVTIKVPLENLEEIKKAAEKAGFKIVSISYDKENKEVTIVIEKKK

variants of: B1; assay: folding stability dG (cDNA display proteolysis); higher = more stable; details: PBS, room temperature
Quick reminder: number only, in kcal/mol, skip the unit.

folding stability dG in this record for DRVTIKVPLENLEEIKKAAEKAGFKIVSISYDKENKEVTIVIEKKK : 3.58

folding stability dG in this record for DLVTIKVPLENLEEIKKAAEKAGFKIHSISYDKENKEVTIVIEKKK : 3.96

folding stability dG in this record for DLVTIKVPLENSEEIKKAAEKAGFKIVSISYDKENKEVTIVIEKKK : 3.38
